Property: inhibition at 25 µM; scope: individual compounds
Target: UniProt:Q9NYW0
Sequence (Q9NYW0 whole entry): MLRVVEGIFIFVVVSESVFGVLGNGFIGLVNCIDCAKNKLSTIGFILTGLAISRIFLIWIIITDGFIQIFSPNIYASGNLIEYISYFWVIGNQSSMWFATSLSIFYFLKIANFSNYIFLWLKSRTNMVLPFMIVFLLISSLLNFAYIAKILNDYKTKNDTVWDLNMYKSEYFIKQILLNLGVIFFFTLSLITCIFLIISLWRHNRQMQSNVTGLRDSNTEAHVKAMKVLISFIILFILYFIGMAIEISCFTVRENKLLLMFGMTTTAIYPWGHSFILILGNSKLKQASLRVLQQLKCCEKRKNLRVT
Assay: hT2R panel inhibition, transient HEK293 G16g44, agonist Strychnine 50 μM
Assay type: cell-based
Settings: HEK293, read-out: screening result against bitter receptor 10, compound at 25 μM; receptor activated to EC80 with the corresponding agonist

{"columns": ["COMPOUND", "inhibition at 25 µM"],
 "data": [
  ["COc1ccc(CN(Cc2ccccc2)S(=O)(=O)CCC(=O)O)cc1 [Example 5-57]", "20 to 40%"],
  ["COc1ccc(CN(Cc2ccoc2)S(=O)(=O)c2ccc(C(=O)O)cc2)cc1 [Example 5-27]", "60 to 80%"],
  ["COc1ccc(CN(Cc2cccc(Cl)c2)S(=O)(=O)c2ccc(C(=O)O)cc2)cc1 [Example 5-14]", "> 80%"],
  ["COc1ccc(CN(Cc2ccccc2)S(=O)(=O)c2ccc(C(=O)O)cc2)c(OC)c1 [Example 5-13]", "20 to 40%"],
  ["O=C(O)c1ccc(S(=O)(=O)N(Cc2ccccc2)Cc2ccccc2Cl)cc1 [Example 5-83]", "40 to 60%"]
]}

Incoming: Fill blank: measured inhibition at 25 µM of the compound COc1cccc(CN(Cc2ccccc2)S(=O)(=O)c2ccc(C(=O)O)cc2)c1 [Example 5-74] is ____.
Outgoing: 40 to 60%

Incoming: What value of inhibition at 25 µM has been reported for the following compound? COc1ccc(CCN(Cc2ccccc2)S(=O)(=O)c2ccc(C(=O)O)cc2)cc1 [Example 5-81]
Outgoing: 20 to 40%

Incoming: Can you look up the measured inhibition at 25 µM of COc1ccc(CN(CC2CCCCC2)S(=O)(=O)c2ccc(C(=O)O)cc2)cc1 [Example 5-23] for me?
Outgoing: > 80%

* * *

inhibition at 25 µM values for the compounds below.
Biological target: hT2R64 (Homo sapiens (Human), UniProt P59538)
Sequence (P59538 whole entry): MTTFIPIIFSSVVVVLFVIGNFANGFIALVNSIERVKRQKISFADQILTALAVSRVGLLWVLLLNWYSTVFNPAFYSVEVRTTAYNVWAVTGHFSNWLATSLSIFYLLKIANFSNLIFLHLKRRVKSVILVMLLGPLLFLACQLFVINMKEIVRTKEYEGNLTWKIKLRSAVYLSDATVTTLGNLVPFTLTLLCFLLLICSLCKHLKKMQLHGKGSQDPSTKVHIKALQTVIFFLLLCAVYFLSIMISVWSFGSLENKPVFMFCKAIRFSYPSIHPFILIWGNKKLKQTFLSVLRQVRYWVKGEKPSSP
Assay: hT2R panel inhibition, transient HEK293 G16g44, agonist Aristolochic Acid 1 μM
Type: cell-based
Conditions: HEK293, compound at 25 μM; receptor activated to EC80 with agonist; read-out: inhibition of bitter receptor 64

Example entries and their recorded answers appear below.
{"columns": ["TEST_SMILES", "READING"],
 "data": [
  ["N#C/C(=C\\c1ccco1)C(=O)Nc1nnc(-c2ccccc2)s1", "20 to 40%"],
  ["CCOc1ccc(CN(Cc2ccccc2)S(=O)(=O)c2ccc(C(=O)O)cc2)cc1", "> 80%"],
  ["CCCOc1ccc(CN(Cc2ccccc2)S(=O)(=O)c2ccc(C(=O)O)cc2)cc1", "> 80%"],
  ["CC(C)Oc1ccc(CN(Cc2ccccc2)S(=O)(=O)c2ccc(C(=O)O)cc2)cc1", "60 to 80%"],
  ["Cc1cc2c(cc1S(=O)(=O)Nc1ccc(F)cc1)n(C)c(=O)c(=O)n2C", "20 to 40%"],
  ["COc1ccc(OC)c(/C=C2\\SC(=S)N(CCC(=O)O)C2=O)c1", "60 to 80%"]
]}

Turning now to a further record.
Incoming: Given the entry `COc1ccc2c(c1)-c1ccccc1CN(S(=O)(=O)c1ccc(C(=O)O)cc1)C2` , what inhibition at 25 µM was observed with hT2R64 (Homo sapiens (Human), UniProt P59538)?
Outgoing: 60 to 80%

* * *

Target: hT2R9 (Homo sapiens (Human))
Sequence (Q9NYW1 whole entry): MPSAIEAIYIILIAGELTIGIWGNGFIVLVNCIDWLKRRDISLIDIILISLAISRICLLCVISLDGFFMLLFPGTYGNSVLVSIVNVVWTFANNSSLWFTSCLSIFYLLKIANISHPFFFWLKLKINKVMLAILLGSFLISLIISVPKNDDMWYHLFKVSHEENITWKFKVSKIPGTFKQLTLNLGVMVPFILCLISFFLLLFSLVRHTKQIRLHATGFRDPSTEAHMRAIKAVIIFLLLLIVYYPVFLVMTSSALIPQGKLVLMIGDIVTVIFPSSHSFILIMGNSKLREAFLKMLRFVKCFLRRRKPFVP
Assay: hT2R panel inhibition, transient HEK293 G16g44, agonist Ofloxacin 1 mM
Format: cell-based
Conditions: HEK293, compound at 25 μM; receptor activated to EC80 with the corresponding agonist; read-out: screening result against bitter receptor 9
PARAMETER_MEASURED: inhibition at 25 µM

{"columns": ["COMPOUND", "PARAMETER_MEASURED", "READING"],
 "data": [
  ["COc1ccc(CN(Cc2cccc(F)c2F)S(=O)(=O)c2ccc(C(=O)O)cc2)cc1", "inhibition at 25 µM", "20 to 40%"],
  ["COc1ccc(CN(Cc2ccc(C)cc2)S(=O)(=O)c2ccc(C(=O)O)cc2)cc1", "inhibition at 25 µM", "20 to 40%"],
  ["COc1ccc(CN(Cc2cccc(F)c2)S(=O)(=O)c2ccc(C(=O)O)cc2)cc1", "inhibition at 25 µM", "40 to 60%"],
  ["COc1cc(OC)c(CN(Cc2ccccc2)S(=O)(=O)c2ccc(C(=O)O)cc2)c(OC)c1", "inhibition at 25 µM", "20 to 40%"],
  ["COc1ccc(CN(CC2CCCCC2)S(=O)(=O)c2ccc(C(=O)O)cc2)cc1", "inhibition at 25 µM", "40 to 60%"],
  ["COc1ccc(CN(Cc2ccc(OC)cc2)S(=O)(=O)c2ccc(C(=O)O)cc2)cc1", "inhibition at 25 µM", "20 to 40%"],
  ["Cc1ccc(S(=O)(=O)N(Cc2ccccc2)CC2CCC(C(=O)O)CC2)cc1 (centres unmarked)", "inhibition at 25 µM", "20 to 40%"]
]}

Now turn to the next compound.
Incoming: Would you mind telling me what inhibition at 25 µM value was observed for `Cc1ccccc1CN(Cc1ccccc1)S(=O)(=O)c1ccc(C(=O)O)cc1` ?
Outgoing: 20 to 40%

Entry source: patent US9247759B2
